The reported measurements were obtained from patent US20230339981A1.

Tested on: GP2D (KRAS G12D) cells
experiment_summary: 2D cell viability assay (CellTiter-Glo)
Type: cell-based
recorded_conditions: GP2d, 96 h, 4 days
# reported EC50; entries follow
Answer in nM, number only, no unit symbol.

C#Cc1c(F)ccc2cccc(-c3nc4c5c(nc(OCC6(CN7CCN(CC(F)(F)F)CC7)CC6)nc5c3F)N3C[C@H]5CC[C@H](N5)[C@@H]3[C@@H](C)C4)c12 [Example 101]; 175

Recorded EC50 for C#Cc1c(F)ccc2cc(O)cc(-c3nc4c5c(nc(OCC6(CN7CC[C@@H](C(F)(F)F)C7)CC6)nc5c3F)N3C[C@H]5CC[C@H](N5)[C@H]3CC4)c12 [Example 70] , please? 1

Which EC50 value belongs to C#Cc1c(F)ccc2cc(O)cc(-c3nc4c5c(nc(OC[C@@]67CCCN6C[C@H](F)C7)nc5c3F)N3C[C@H]5CC[C@H](N5)[C@H]3[C@H](C3CC3)O4)c12 [Example 71] ? 81
